- System: CCRIS mutagenicity, Ames/micronucleus/aberration tests
- test_description: CCRIS mutagenicity studies
- condition: Test System: Ames Salmonella typhimurium; Strain/Indicator: TA100; Metabolic Activation: None; Method: Preincubation
Active and inactive are the calls of the source. How the calls were made is not given here.
recorded_endpoint: mutagenic call

O=c1cc(CO)occ1O
active; positive
CN(C)c1ccc(C(=C2C=CC(=[N+](C)C)C=C2)c2ccccc2Cl)cc1
inactive; negative
OCCOc1ccccc1
inactive; negative
C1=CCCCC1
inactive; negative
C[C@]12CCC(=O)C=C1CC[C@@H]1[C@@H]2CC[C@]2(C)C(=O)CC[C@@H]12
inactive; negative
O=C1C=CC(=O)c2ccccc21
inactive; negative
OCC1CO1 (configuration not stated)
active; positive
C(=NC1CCCCC1)=NC1CCCCC1
inactive; negative
O=C(O)CCSCCC(=O)O
inactive; negative
Cc1cccc(O)c1
inactive; negative
C[N+](C)=c1ccc2nc3ccc(N)cc3sc-2c1
active; positive

----------
- Test system: CCRIS mutagenicity, Ames/micronucleus/aberration tests
- test_description: CCRIS mutagenicity studies
- condition: Test System: AMES SALMONELLA TYPHIMURIUM; Strain/Indicator: TA1535; Metabolic Activation: NONE; Method: STANDARD PLATE
Calls of active or inactive are those of the source. The rule behind the calls is not given here.
Outcome codes: 1 (yes) = active, 0 (no) = inactive

CCC1(c2ccccc2)C(=O)NC(=O)NC1=O
1 (yes)
O=C(O)C[C@H](NC(=O)COc1cc(Cl)c(Cl)cc1Cl)C(=O)O
0 (no)
CN(C)CCCNc1c2ccccc2nc2ccc([N+](=O)[O-])cc12
1 (yes)
CC(=O)OCc1cc(C(C)=O)ccc1OC(C)=O
0 (no)
ONc1ccc(Cl)cc1
0 (no)
FC(Cl)C(F)(F)C(F)(F)Cl (centres undefined)
0 (no)
OC(CCl)CCl
1 (yes)
COc1cc(CCC(C)=O)ccc1O
0 (no)
CN(C)N=Nc1ccc(Br)cc1
0 (no)
O=CC(O)C(O)C(O)CO (centres undefined)
0 (no)
OCC(Cl)CCl (centres undefined)
1 (yes)
Nc1c(S(=O)(=O)O)cc(NC2CCCCC2)c2c1C(=O)c1ccccc1C2=O
0 (no)
COc1ccc2[nH]cc(CCNC(C)=O)c2c1
0 (no)
CCC(C)(C)OC
0 (no)

----------
- System: CCRIS mutagenicity, Ames/micronucleus/aberration tests
- test_description: CCRIS mutagenicity studies
- condition: Test System: AMES SALMONELLA TYPHIMURIUM; Strain/Indicator: TA98; Metabolic Activation: RAT, LIVER, S-9, AROCLOR 1254 (30%); Method: PREINCUBATION
Activity calls are given as the source filed them. No rule for the calls is given here.
recorded_endpoint: mutagenic call

O=C1CCC(=O)O1
inactive; negative
COc1cc([N+](=O)[O-])ccc1N=NC(C(C)=O)C(=O)Nc1ccccc1OC (stereo unspecified)
inactive; negative
Cc1cc(Cl)ccc1O
inactive; negative
NC(=O)Nc1nc2ccccc2[nH]1
active; positive
Nc1cc(Cl)ccc1Cl
inactive; negative
COc1cc(N)ccc1C
active; positive

----------
- System: CCRIS mutagenicity, Ames/micronucleus/aberration tests
- test_description: CCRIS mutagenicity studies
- condition: Test System: AMES SALMONELLA TYPHIMURIUM; Strain/Indicator: TA98; Metabolic Activation: RAT, LIVER, S-9, AROCLOR 1254; Method: STANDARD PLATE
Calls of active or inactive are those of the source. No rule for the calls is given here.
Outcome codes: 1 for active, 0 for inactive

O=C(O)C[C@H](NC(=O)COc1cc(Cl)c(Cl)cc1Cl)C(=O)O
0
C1OCOCO1
0
O=S(=O)(c1ccc(Cl)cc1)c1cc(Cl)c(Cl)cc1Cl
0
O=C1C=C[C@]2(O)c3c(ccc(O)c31)-c1ccc(O)c3c1[C@H]2C1OC1C3=O (some centres not stated)
1
CC(=O)Nc1ccc(C(=O)CCl)cc1
0
O=C(O)c1ccc(N=Nc2ccc(O)c(C(=O)O)c2)cc1
0
COC(=O)C12OC1(C)C(C(C)C)OC2=O (configuration not stated)
1

----------
- Tested on: CCRIS mutagenicity, Ames/micronucleus/aberration tests
- test_description: CCRIS mutagenicity studies
- condition: Test System: AMES SALMONELLA TYPHIMURIUM; Strain/Indicator: TA100; Metabolic Activation: HAMSTER, LIVER, S-9, AROCLOR 1254 (10%); Method: STANDARD PLATE
Calls of active or inactive are those of the source. The rule behind the calls is not given here.
Classes used: active, inactive

ClC/C=C\CCl
active
CN(C)c1ccc(/C=C/c2ccccc2)cc1
active
Oc1ccccc1-c1ccccc1
inactive
CCN(CC)c1ccc(C(=C2C=CC(=[N+](CC)CC)C=C2)c2ccc(N(CC)CC)cc2)cc1
inactive
CCN(CC)c1ccc2c(-c3ccc(S(=O)(=O)O)cc3S(=O)(=O)[O-])c3ccc(=[N+](CC)CC)cc-3oc2c1
inactive
CCCCC(CC)COC(=O)c1ccc(N(C)C)c([N+](=O)[O-])c1 (stereo not drawn)
inactive
C[C@]12C=CC(=O)C=C1CC[C@@H]1[C@@H]2C(=O)C[C@@]2(C)[C@H]1CC[C@]2(O)C(=O)CO
inactive
C[CH2][Ge]([Cl])([CH2]C)[CH2]C
inactive

----------
- Tested on: CCRIS mutagenicity, Ames/micronucleus/aberration tests
- test_description: CCRIS mutagenicity studies
- condition: Test System: MOUSE LYMPHOMA; Strain/Indicator: L5178Y (TK+/TK-); Metabolic Activation: NONE; Method: SUSPENSION/PLATE
Calls of active or inactive are those of the source. No rule for the calls is given here.
Outcomes: true for active, false for inactive

CCN(CC)CCNc1ccc(CO)c2sc3ccccc3c(=O)c12
true
Nc1nccs1
true
Clc1cc(Cl)c(Cl)cc1Cl
false
O=C1C=CC(=O)C=C1
true
CC1=CC(O)=NS(=O)(=O)O1
false
Nc1c(S(=O)(=O)O)cc(Nc2cccc(S(=O)(=O)CCOS(=O)(=O)O)c2)c2c1C(=O)c1ccccc1C2=O
true
Nc1ccc(N=Nc2ccccc2)c(N)n1
false
CCn1cc(C(=O)O)c(=O)c2cc(F)c(-c3ccncc3)c(F)c21
true
COc1cc(Nc2c3ccccc3nc3ccccc23)ccc1NS(C)(=O)=O
true
Nc1ccc(N=Nc2ccc3c(c2)C(=O)/C(=N/Nc2ccc(Nc4ccc(N/N=C5/C(=O)c6cc(N=Nc7ccc(N)cc7N)ccc6C=C5S(=O)(=O)O)cc4S(=O)(=O)O)cc2)C(S(=O)(=O)O)=C3)c(N)c1
false
O=C(Cl)c1ccc([N+](=O)[O-])cc1
false
c1ccc2scnc2c1
false
c1ccc(Nc2ccc3ccccc3c2)cc1
false
ClCC(Br)CBr (configuration not stated)
true
CN(C)CCCCl
false
C[C@]12C=CC(=O)C=C1CC[C@@H]1[C@@H]2[C@@H](O)C[C@@]2(C)[C@H]1CC[C@]2(O)C(=O)CO
false
CCN(CC)c1ccc2c(-c3ccc(S(=O)(=O)O)cc3S(=O)(=O)[O-])c3ccc(=[N+](CC)CC)cc-3oc2c1
false
O=C1c2ccccc2C(=O)c2ccccc21
false
CCC(C)=O
false
C[N+](=O)[O-]
true
O=C(O)/C=C/C(=O)O
true
CC1CCOB(OCCC(C)OB2OCCC(C)O2)O1 (configuration not stated)
false
O=c1[nH]cc(N(CCCl)CCCl)c(=O)[nH]1
true
N#Cc1ccccc1
false
ClC/C=C\CCl
true
C[CH2][Ge]([Cl])([CH2]C)[CH2]C
false
CNC(=O)Oc1ccccc1OC(C)C
true

----------
- Test system: CCRIS mutagenicity, Ames/micronucleus/aberration tests
- test_description: CCRIS mutagenicity studies
- condition: Test System: AMES SALMONELLA TYPHIMURIUM; Strain/Indicator: TA100; Metabolic Activation: RAT, LIVER, MICROSOMES; Method: STANDARD PLATE
Active and inactive are the calls of the source. No rule for the calls is given here.
Outcome codes: 1 (active), 0 (inactive)

CC(C)CCCC(C)C1CCC2C3CC=C4CC(OCCO)CCC4(C)C3CCC12C (stereo not given)
0
Cc1cc2c(c3ccc4c(O)c(O)ccc4c13)CCC2=O
0
Cc1ccccc1OP(=O)(Oc1ccccc1C)Oc1ccccc1C
1
Cc1cccc2c1ccc1c3ccccc3ccc21
0
CC(=O)OCCO
0

----------
- Test system: CCRIS mutagenicity, Ames/micronucleus/aberration tests
- test_description: CCRIS mutagenicity studies
- condition: Test System: AMES SALMONELLA TYPHIMURIUM; Strain/Indicator: TA102; Metabolic Activation: RAT, LIVER, S-9, AROCLOR 1254; Method: STANDARD PLATE
Activity calls are given as the source filed them. How the calls were made is not given here.
Outcomes: YES for active, NO for inactive

Cc1c(N=O)c(=O)n(-c2ccccc2)n1C
YES
CCOC(=O)c1[nH]c2ccccc2c1N=Cc1ccc([N+](=O)[O-])cc1
NO
NNC(=O)c1ccncc1
NO
O=c1cc(-c2ccc(O)cc2)oc2cc(O)cc(O)c12
NO
Fc1ccccn1
NO
O=S(=O)(c1ccc(Cl)cc1)c1cc(Cl)c(Cl)cc1Cl
NO
CCCC[C@@H](C)[C@@H](OC(=O)C[C@@H](CC(=O)O)C(=O)O)[C@H](C[C@@H](C)CCCCCC[C@@H](O)C[C@H](O)[C@H](C)N)OC(=O)C[C@@H](CC(=O)O)C(=O)O
NO
Cc1c(N)c(=O)n(-c2ccccc2)n1C
NO
CC12CCC(=O)NC1=CCC1C2CCC2(C)C(OC(=O)CCCc3ccc(N(CCCl)CCCl)cc3)CCC12 (stereo not drawn)
NO
CC(=O)O[C@H]1CC[C@@]2(C)C(=CC[C@H]3[C@@H]4CC[C@H]([C@H](C)CCCC(C)C)[C@@]4(C)CC[C@@H]32)C1
NO
Cc1ccc(N(N)c2ccc(C)cc2)cc1
YES
C[C@]12CC[C@H](OC(=O)Cc3ccc(N(CCCl)CCCl)cc3)C[C@@H]1CC[C@@H]1[C@@H]2CC[C@]2(C)NC(=O)CC[C@@H]12
YES
Cc1ccc2ccc3c(ccc4c5cccc(C)c5ccc43)c2c1
NO
CCCCOCCO
NO
CCOCCO
NO
COc1c(Cl)ccc(Cl)c1C(=O)O
NO
Cc1cc(Cl)ccc1OC(C)C(=O)O (stereo not drawn)
NO
CN(C)C(=O)c1nc2n(n1)-c1ccc(Cl)cc1C(c1ccccc1Cl)=NC2
NO
S=C1NCCN1
NO
N#Cc1c(Cl)cccc1Cl
NO
CCN(N)c1ccccc1
YES
Cc1cc2nc3ccc(=[N+](C)C)cc-3sc2cc1N
YES
CC1(C)CC[C@]2(C(=O)O)CC[C@]3(C)C(=CC[C@@H]4[C@@]5(C)C[C@H](O)[C@H](O)[C@@](C)(C(=O)O)[C@@H]5CC[C@]43C)[C@@H]2C1
NO

Numbers sourced from PubChem BioAssay AID1259407.
